# Tested Target: TRPML3 (Homo sapiens, UniProt Q8TDD5)
# Sequence (Q8TDD5 whole entry): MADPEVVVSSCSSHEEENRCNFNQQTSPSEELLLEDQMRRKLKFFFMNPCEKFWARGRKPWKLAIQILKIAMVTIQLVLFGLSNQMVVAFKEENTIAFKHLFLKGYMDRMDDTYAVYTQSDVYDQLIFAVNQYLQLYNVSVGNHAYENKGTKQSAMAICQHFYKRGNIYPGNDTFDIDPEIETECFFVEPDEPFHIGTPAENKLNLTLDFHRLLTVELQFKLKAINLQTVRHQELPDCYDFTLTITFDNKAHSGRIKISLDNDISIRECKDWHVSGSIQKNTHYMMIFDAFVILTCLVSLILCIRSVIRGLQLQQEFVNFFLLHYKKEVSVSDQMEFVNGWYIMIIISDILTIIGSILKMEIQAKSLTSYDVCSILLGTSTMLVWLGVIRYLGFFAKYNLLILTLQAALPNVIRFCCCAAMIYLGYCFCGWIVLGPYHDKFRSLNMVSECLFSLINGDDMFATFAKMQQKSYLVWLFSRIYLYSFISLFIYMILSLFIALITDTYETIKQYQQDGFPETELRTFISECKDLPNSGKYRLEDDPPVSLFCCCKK
# Test Method Notes: Whole-cell patch-clamp, HEK293 cells transiently transfected with TRPML3
# Type: cell-based
# Conditions: current density at −80 mV; 10 µM in standard bath solution; mean ±SEM (n≥3)
Recorded nA/pF (-80 mV) (TRPML3), one value per entry.
Experimental Readout: nA/pF (-80 mV) (TRPML3) (nA/pF)

molecule="CCCOc1cc(C)c(Cl)cc1S(=O)(=O)N(CC)CC [SF-33]" data_value=−0.06
molecule="Cc1ccc(S(=O)(=O)n2nccc2-c2c(-c3ccc(Cl)cc3)noc2C)cc1 [SF-11]" data_value=−0.14
molecule="O=S(=O)(NC1CCCCC1N1CCOCC1)c1ccc(Cl)cc1 (stereo not shown) [SF-21]" data_value=−0.55
molecule="Cc1ccc(S(=O)(=O)Nc2ccccc2-c2ccccc2)cc1 [SF-24]" data_value=−0.02
molecule="O=S(=O)(Nc1ccccc1N1CCOCC1)c1ccc(Cl)s1 [SF-23]" data_value=−0.37
molecule="CC1=CC(C)(C)N(C(=O)CN2C(=O)c3ccccc3C2=O)c2ccccc21 [SF-51]" data_value=−0.41
molecule="O=S(=O)(Nc1ccccc1N1CCCCC1)c1ccc(Cl)s1 [SF-22]" data_value=−0.24
molecule="Cc1cc(C)c(C2=NOC3C4CCC(C4)C23)c(C)c1 (stereo not shown) [SN-2]" data_value=−0.30
molecule="Cc1ccc(N2CCN(S(=O)(=O)N3CCCCC3)CC2)c(C)c1 [SF-41]" data_value=−0.42
molecule="COc1ccccc1C1CN=NC12CCCc1ccccc1C2=O (stereo not shown) [SF-61]" data_value=−0.07

Data provenance is paper PMC2834294.
